Conditions: human, serum;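 note: acute human liver injury from clinical signs plus serum ALT or AST above 6 N or alkaline phosphatase above 1.7 N, covering cytolytic, cholestatic and mixed forms, value counts references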
Each entry below carries its reported Hepatotoxicity (acute).

| compound | Hepatotoxicity (acute) |
| --- | --- |
| CC(=O)[C@@]1(O)CC[C@H]2[C@@H]3C=C(Cl)C4=CC(=O)[C@@H]5C[C@@H]5[C@]4(C)[C@H]3CC[C@@]21C [CYPROTERONE] | 21 |
| CN1C(CCl)Nc2cc(Cl)c(S(N)(=O)=O)cc2S1(=O)=O (configuration not stated) [METHYCLOTHIAZIDE] | 0 |
| CN/C(=N/CCSCc1nc[nH]c1C)NC#N [CIMETIDINE] | 28 |
| COc1ccc2[nH]c([S+]([O-])Cc3ncc(C)c(OC)c3C)nc2c1 (configuration not stated) [OMEPRAZOLE] | 10 |
| C[C@@H](CN1CC(=O)NC(=O)C1)N1CC(=O)NC(=O)C1 [DEXRAZOXANE] | 0 |
| c1ccc(C2(c3ccccc3)CC2C2=NCCN2)cc1 (configuration not stated) [CIFENLINE] | 2 |

Which Hepatotoxicity (acute) is reported for this compound? CCC1=C[C@@H]2CN(C1)Cc1c([nH]c3ccccc13)[C@@](C(=O)OC)(c1cc3c(cc1OC)N(C)[C@H]1[C@@](O)(C(=O)OC)[C@H](OC(C)=O)[C@]4(CC)C=CCN5CC[C@]31[C@@H]54)C2 [VINORELBINE]
3

I would be grateful if you could share the reported Hepatotoxicity (acute) for CCC(C(=O)NC(N)=O)c1ccccc1 (configuration not stated) [PHENETURIDE] .
0

Record request: Hepatotoxicity (acute) value, item FC(F)OC(F)(F)C(F)Cl (configuration not stated)
21
